tested_system: Proprotein convertase subtilisin/kexin type 9 (Homo sapiens)
Sequence (Q8NBP7 31-152 limits assumed): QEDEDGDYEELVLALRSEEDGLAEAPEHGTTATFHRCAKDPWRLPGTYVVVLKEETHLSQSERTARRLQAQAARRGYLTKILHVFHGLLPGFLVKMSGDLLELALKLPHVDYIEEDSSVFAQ
Sequence (Q8NBP7 153-692 limits assumed): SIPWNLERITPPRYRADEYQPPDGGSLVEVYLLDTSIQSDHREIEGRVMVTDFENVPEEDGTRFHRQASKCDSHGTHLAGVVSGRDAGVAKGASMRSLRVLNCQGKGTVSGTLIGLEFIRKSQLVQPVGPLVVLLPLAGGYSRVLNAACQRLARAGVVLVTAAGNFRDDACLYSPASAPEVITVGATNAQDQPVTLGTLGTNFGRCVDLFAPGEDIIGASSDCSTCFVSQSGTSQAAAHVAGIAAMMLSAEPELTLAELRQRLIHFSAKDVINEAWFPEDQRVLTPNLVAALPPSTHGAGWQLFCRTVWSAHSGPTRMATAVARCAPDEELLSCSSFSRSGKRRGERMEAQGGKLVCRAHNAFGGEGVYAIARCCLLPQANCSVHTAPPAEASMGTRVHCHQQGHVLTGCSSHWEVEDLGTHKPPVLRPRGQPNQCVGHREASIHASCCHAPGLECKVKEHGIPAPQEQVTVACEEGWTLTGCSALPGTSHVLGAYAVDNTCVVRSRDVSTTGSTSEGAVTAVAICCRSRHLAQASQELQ
assay_notes: Inhibition of human PCSK9 using Alexa Fluor […] as substrate incubated for 2 hrs by FRET plus assay
property: pKi
Interpret pKi as the negative base-10 log of the concentration measured in mol/L.

Recorded pKi for `COc1ccc(C[C@@H]2NC(=O)[C@H]([C@@H](C)O)NC(=O)[C@@H]3[C@@H]4CCN3C(=O)[C@@H]3Cc5cn(c6ccc(F)cc56)Cc5cn(nn5)-c5cc(cc(c5)CSCCC(=O)N[C@@H](CN)C(=O)N[C@H](C)C(=O)N[C@@H](Cc5cccc(c5)C/C=C/CO4)C(=O)N3)CSCCNC(=O)[C@]3(C)CCCN3C2=O)cc1` , please?
11.08
